Cited source for all entries: the array DNA melting data of Ke et al. (doi:10.1101/2024.01.08.574731)

Experiment: folding enthalpy; higher = less favourable; fluorescence melt of hairpins on a sequencing array, two-state fit
Details: sodium 0.088 M
// folding enthalpy lookup, one value per entry
Lab book: enter the figure in kcal/mol, no units written.

- SEQUENCE_STRING: "GTTTCCACGAAAGTGAAC (((..(((....))))))"
  folding enthalpy (kcal/mol): -8.62

Q: Please report the measured folding enthalpy for GTAACCGAAAGGTATAC ((((((....))).)))
A: -14.9

====

// folding enthalpy lookup, one value per entry
Assay: folding enthalpy; higher = less favourable; fluorescence melt of hairpins on a sequencing array, two-state fit
Settings: sodium 0.088 M
Lab book: enter the figure in kcal/mol, no units written.

- SEQUENCE_STRING: "GGTTCAGGAAACTGGACC (((.(((....))).)))"
  METRIC: "folding enthalpy"
  VALUE_REPORTED: -44.8
- SEQUENCE_STRING: "CGCGGAAGATTCCGCG ((((((....))))))"
  METRIC: "folding enthalpy"
  VALUE_REPORTED: -38.7
- SEQUENCE_STRING: "GCAGGGCGAAAGCTGTGC (((..((....))..)))"
  METRIC: "folding enthalpy"
  VALUE_REPORTED: -21.7
- SEQUENCE_STRING: "GCGTTGATACGC ((((....))))"
  METRIC: "folding enthalpy"
  VALUE_REPORTED: -23.1
- SEQUENCE_STRING: "GATCAAGACGTTGATC ((((((....))))))"
  METRIC: "folding enthalpy"
  VALUE_REPORTED: -34

Then there is this sequence:
Q: Please report the measured folding enthalpy for GTATGTCGAAAGACGTAC (((.(((....))).)))
A: -24.8

====

Assay: melting temperature; fluorescence melt of hairpins on a sequencing array, two-state fit, raised by 9.35 °C to match UV melts
Conditions: sodium 0.088 M
METRIC: Tm (°C)
Lab book: enter the figure in °C, no units written.

Q: Please report the measured Tm for GTGCCTCGAAAGAGCAC (((.(((....))))))
A: 53.5

Q: Please report the measured Tm for GACCCCCGAAAGGGAGTC (((.(((....))).)))
A: 54

Q: Please report the measured Tm for GATCGGCACCCCGATC ((((((....))))))
A: 56.6

Q: Please report the measured Tm for CGGACGGAAACGTAACCG ((((((....)))..)))
A: 36.1

Q: Please report the measured Tm for GCACCTGGAAACGGGTGC (((((.(....).)))))
A: 60.9

====

Assay: folding enthalpy; higher = less favourable; fluorescence melt of hairpins on a sequencing array, two-state fit
Details: sodium 0.088 M
// bucketize folding enthalpy: low-valued: < -30 kcal/mol; mid-valued: ≥ -30 kcal/mol and < -20 kcal/mol; high-valued: ≥ -20 kcal/mol

- SEQUENCE_STRING: "GATCGTCGCAACGATC ((((((....))))))"
  CLASS_LABEL: "low-valued"
- SEQUENCE_STRING: "CGAACGGAAACGTGTCG ((((((....))).)))"
  CLASS_LABEL: "mid-valued"

Q: Which class is correct for the following sequence? GCGACGCGAAAGCGCGGC ((..(((....)))..))
A: high-valued

Q: Which class is correct for the following sequence? GGTATGCGAAAGCAGACC (((.(((....))).)))
A: low-valued

Q: Which class is correct for the following sequence? GATCGGTGTGCCGATC ((((((....))))))
A: low-valued

Q: Which class is correct for the following sequence? GACCCAGGAAACTGGGCC (.(((((....))))).)
A: high-valued

Q: Which class is correct for the following sequence? GCGTGAGACGC ((((...))))
A: high-valued
